assayed_target: human factor Xa (Homo sapiens)
Construct: purchased Enzyme Research Laboratories
test_method_notes: Determination of Factor Xa IC50 (cleavage of fluorogenic substrate F-S2765)
Format: biochemical
assay_conditions: 30 pM human factor Xa; compound @ 1 μM
assay_readout: FxXa 30 pM, % @ 1 μM

Answered cases to consult:
CN(CC(=O)Nc1ccc(-c2ccccc2S(C)(=O)=O)cc1F)C(=O)N(C)c1ccc(Cl)cc1 = 18% @ 1 μM
CS(=O)(=O)c1ccccc1-c1ccc(NC(=O)CN(Cc2ccccc2)C(=O)Nc2ccc(Cl)cc2)c(F)c1 = 30% @ 1 μM
CN(C(=O)NCC(=O)Nc1ccc(-c2ccccc2S(C)(=O)=O)cc1F)c1ccc(Cl)cc1 = 17% @ 1 μM

*Q* Provide value of FxXa 30 pM, % @ 1 μM for this record tested with human factor Xa (Homo sapiens): "CN(C)CCN(CC(=O)Nc1ccc(-c2ccccc2S(C)(=O)=O)cc1F)C(=O)Nc1ccc(Cl)cc1"
*A* 13.7% @ 1 μM

* * *

assayed_target: human factor Xa (Homo sapiens, UniProt P00742)
Construct: purchased Enzyme Research Laboratories
Sequence (P00742 235-488 limits assumed): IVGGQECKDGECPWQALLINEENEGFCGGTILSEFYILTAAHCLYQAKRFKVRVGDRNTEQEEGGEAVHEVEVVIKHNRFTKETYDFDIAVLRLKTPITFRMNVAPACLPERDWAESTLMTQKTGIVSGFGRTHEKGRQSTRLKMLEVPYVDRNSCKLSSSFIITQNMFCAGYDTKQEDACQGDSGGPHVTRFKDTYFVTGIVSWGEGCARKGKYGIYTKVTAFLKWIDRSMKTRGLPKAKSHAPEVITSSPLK
Sequence (P00742 41-179 partner limits assumed): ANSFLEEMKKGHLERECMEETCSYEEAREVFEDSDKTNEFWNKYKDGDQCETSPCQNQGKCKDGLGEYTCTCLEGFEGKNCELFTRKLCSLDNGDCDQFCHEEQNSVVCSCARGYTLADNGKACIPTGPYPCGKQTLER
test_method_notes: Determination of Factor Xa IC50 (cleavage of fluorogenic substrate F-S2765)
Type: biochemical
assay_conditions: 30 pM human factor Xa; read-out: FxXa 30 pM IC50
The reader will find reported pIC50 values listed item by item below.
By convention, pIC50 is the negative base-10 log of a molar concentration.

COCCN(CC(=O)Nc1ccc(-c2ccccc2S(C)(=O)=O)cc1F)C(=O)Nc1ccc(Cl)cc1 [Example 24] = 7.59
NS(=O)(=O)c1ccccc1-c1ccc(NC(=O)C2(NC(=O)Nc3ccc(Cl)cc3)CC2)c(F)c1 [Example 5] = 7.44
NS(=O)(=O)c1ccccc1-c1ccc(NC(=O)C(CO)(CO)NC(=O)Nc2ccc(Cl)cc2)cc1 [Example 15] = 7.54
COc1ccc(CN(CC(=O)Nc2ccc(-c3ccccc3S(C)(=O)=O)cc2F)C(=O)Nc2ccc(Cl)cc2)cc1 [Example 28] = 7.10
CC(C)(NC(=O)Nc1ccc(Cl)cc1)C(=O)Nc1ccc(-c2ccccc2S(N)(=O)=O)cc1F [Example 9] = 7.36

*Q* Entry under review: CS(=O)(=O)c1ccccc1-c1ccc(NC(=O)[C@@]2(NC(=O)Nc3ccc(Cl)cc3)C[C@@H]2CO)c(F)c1 [Example 20] . Reported pIC50?
*A* 7.46

*Q* Entry under review: O=C(Nc1ccc(Cl)cc1)N[C@]1(C(=O)Nc2ccc(N3CCCCC3=O)cc2F)C[C@@H]1CO [Example 21] . Reported pIC50?
*A* 6.85

*Q* Entry under review: NS(=O)(=O)c1ccccc1-c1ccc(NC(=O)C2(NC(=O)Nc3ccc(Cl)cc3)CC=CC2)c(F)c1 [Example 11] . Reported pIC50?
*A* 7.18

*Q* Entry under review: CN(CC(=O)Nc1ccc(-c2ccccc2S(C)(=O)=O)cc1F)C(=O)Nc1ccc(Cl)cc1 [Example 12] . Reported pIC50?
*A* 7.70

*Q* Entry under review: CS(=O)(=O)c1ccccc1-c1ccc(NC(=O)C2(NC(=O)Nc3ccc(Cl)cn3)CC2)c(F)c1 [Example 4] . Reported pIC50?
*A* 6.59

* * *

The reader will find reported pIC50 values listed item by item below.
assayed_target: human factor Xa (Homo sapiens)
Construct: purchased Enzyme Research Laboratories
test_method_notes: Determination of Factor Xa IC50 (cleavage of fluorogenic substrate F-S2765)
Assay type: biochemical
assay_conditions: 30 pM human factor Xa; read-out: FxXa 30 pM IC50
By convention, pIC50 is the negative base-10 log of a molar concentration.

CC(C)(NC(=O)Nc1ccc(Cl)cn1)C(=O)Nc1ccc(-c2ccccc2S(C)(=O)=O)cc1F = 6.54
COCCN(CC(=O)Nc1ccc(N2CCCCC2=O)cc1F)C(=O)Nc1ccc(Cl)cc1 = 6.65
NS(=O)(=O)c1ccccc1-c1ccc(NC(=O)C2(NC(=O)Nc3ccc(Cl)cc3)CCSCC2)c(F)c1 = 7.19

# evaluate next
*Q* Entry under review: "NS(=O)(=O)c1ccccc1-c1ccc(NC(=O)C2(NC(=O)Nc3ccc(Cl)cc3)CCOCC2)c(F)c1" . Reported pIC50?
*A* 6.60
